# Tested on: RAW-Dual (murine macrophage reporter line)
# Experiment Description: IRF reporter (Lucia luciferase) activity fold change vs agonist alone; higher = enhanced IRF activity
# Cond: modulator concentration 10 µM; agonist: MPLA […]
Quantity Measured: IRF reporter
Number only, no unit.

| Compound | Study Target | Reported Measurement |
| --- | --- | --- |
| COc1cc(=O)n(C)cc1C(=O)Nc1cccnc1 | RAW-Dual (murine macrophage reporter line) | 0.915 |
| Cc1cc(OCC(=O)NCCn2nc(C3CC3)ccc2=O)cc(C)c1Cl | RAW-Dual (murine macrophage reporter line) | 1.01 |
| Cc1c(C(=O)NN)sc(-c2ccccc2)c1C#N | RAW-Dual (murine macrophage reporter line) | 1.43 |
| NC(=O)c1ncn(C2OC(CO)C(O)C2O)c1O (stereo not given) | RAW-Dual (murine macrophage reporter line) | 1.46 |
| CCC(CNC(=O)Cc1c(F)cccc1Cl)(OC)c1ccccc1 (stereo not given) | RAW-Dual (murine macrophage reporter line) | 1.17 |
| CCCCSc1nnc2c(n1)OC(c1cccc(O)c1)Nc1ccc(Br)cc1-2 (stereo not given) | RAW-Dual (murine macrophage reporter line) | 0.866 |
| CCCc1nc(C(C)(C)O)c(C(=O)OCc2oc(=O)oc2C)n1Cc1ccc(-c2ccccc2-c2nnn[nH]2)cc1 | RAW-Dual (murine macrophage reporter line) | 1.14 |
| Cc1ccc(Sc2c(C)nn(-c3ccccc3)c2OC(=O)C(C)(C)C)cc1 | RAW-Dual (murine macrophage reporter line) | 1.03 |

Entry under test: CC[C@H](C)C(=O)O[C@H]1CCC=C2C=C[C@H](C)[C@H](CC[C@@H]3C[C@@H](O)CC(=O)O3)[C@H]21 . Its IRF reporter was 1.1

Input COC(=O)C1=C(C)NC(C)=C(C(=O)OC)C1c1c(F)cccc1Cl . Output IRF reporter: 1.2

----------
# System: RAW-Dual (murine macrophage reporter line)
# Experiment Description: IRF reporter (Lucia luciferase) activity fold change vs agonist alone; higher = enhanced IRF activity
# Cond: modulator concentration 10 µM; agonist: LPS 0.1 ug/mL
Quantity Measured: IRF reporter
Just the number, please, no unit after it.

| Compound | IRF reporter |
| --- | --- |
| O=C(NC(=S)NNc1ccccc1)c1cc2ccccc2oc1=O | 1.23 |
| O=C(Cc1ccc([N+](=O)[O-])cc1)NN=Cc1cccnc1 | 1.09 |
| CS(=O)(=O)C1CC2CCC(C1)N2C(=O)c1cccc(Oc2ccc(F)cc2)c1 (stereo unspecified) | 1.2 |

// IRF reporter lookup, compound = O=C(CSc1ccc2nc(-c3ccccc3)cn2n1)Nc1ccc(Br)cc1 , result: 1.21

# compound COC(=O)Nn1cnnc1 ; its IRF reporter = 1.25

Record Cc1cc(C)n(CCNc2nc3ccccc3s2)n1 , field IRF reporter: 1.18

Per the records, this compound ( CC(C)c1nc(CN(C)C(=O)N[C@H](C(=O)N[C@@H](Cc2ccccc2)C[C@H](O)[C@H](Cc2ccccc2)NC(=O)OCc2cncs2)C(C)C)cs1 ) has IRF reporter equal to 0.993

IRF reporter recorded for this compound, COc1ccc(CC(C)N2CCN(c3cccc(C)c3C)CC2)cc1OC (stereo unspecified) , is 1.75

// O=C(CCCCCN1C(=O)c2cccc3cccc(c23)C1=O)NCCO : IRF reporter value = 1.29

Lab note: measured IRF reporter of COc1ccccc1NS(=O)(=O)c1cc2c3c(c1)CC(=O)N3CCC2 was 1.09

// recorded IRF reporter for C[N+]1(C)CCC(OC(=O)C(O)(c2ccccc2)C2CCCC2)C1 (stereo unspecified) : 1.24

Memo: O=C(CN(c1cc(Cl)cc(Cl)c1)S(=O)(=O)c1ccccc1)N1CCCCCC1 , reported IRF reporter: 0.991

Field IRF reporter (entry O=[N+]([O-])c1ccc(Nc2ccccc2O)c2nonc12 ) reads 1.55

According to the records, this compound COC1CCN(C2CCN(S(=O)(=O)c3ccccc3)CC2)CC1 displays IRF reporter of 1.08

GET /value?item= CSCCC(NC(=O)C(=Cc1ccccc1)NC(=O)c1ccco1)C(=O)O (stereo unspecified) &field=IRF reporter returns 1.33

// CNC(=NC#N)NCCSCc1nc[nH]c1C : IRF reporter value = 1.21

// sample O=c1c(O)c(-c2ccc(O)c(O)c2)oc2cc(O)cc(O)c12 , its IRF reporter was 1.08

IRF reporter measured on Nc1nc(Cl)nc2c1ncn2[C@@H]1O[C@H](CO)[C@@H](O)[C@@H]1F = 1.01

In plain terms, Nc1ncnc2c1ncn2[C@@H]1O[C@H](CO)[C@@H](O)[C@@H]1O.O has a documented IRF reporter of 1.04

Data point: O=C(Cn1c(C(F)(F)F)nc2ccccc21)c1ccc(OC(F)F)cc1 ; IRF reporter = 1.3

# IRF reporter of CCCOc1cccc(C(=O)Nc2scc(-c3ccccc3)c2C(=O)OC(C)C)c1 = 0.66

----------
# Test system: RAW-Dual (murine macrophage reporter line)
# Experiment Description: IRF reporter (Lucia luciferase) activity fold change vs agonist alone; higher = enhanced IRF activity
# Cond: modulator concentration 10 µM; agonist: 3'3'-cGAMP 10 ug/mL
Range-based classes on measured IRF reporter: I = under 0.7, II = from 0.7 up to 1, III = 1 and over

| Molecule | Label Value |
| --- | --- |
| CC1=NN(c2ccc(S(N)(=O)=O)cc2)C(=O)C1=Cc1ccc(C)s1 | II |
| Br.C=CCn1c(=N)n(CC(=O)c2cccc([N+](=O)[O-])c2)c2ccccc21 | III |

Form: Item = CN(C)[C@@H](CCOc1cccc2ccccc12)c1ccccc1.Cl ; Class = ?
I

Form: Item = CCC(=O)N(CCC(c1ccccc1OC)C1CCOC(C)(C)C1)Cc1ccc(OC)cc1 (stereo not drawn) ; Class = ?
III

Class (by measured IRF reporter) for COc1ccc(CNC2CCCc3ccccc32)c(OC)c1 (stereo not drawn)
I

Into which category would you place Cc1nn2c(=O)c(Cc3ccccc3)c(C)[nH]c2c1-c1ccccc1 ?
III

Classify this molecule: COc1c(Cl)ccc(Cl)c1C(=O)NCc1ccccc1
III

Which category does the recorded IRF reporter put CN(C)CCCN1c2ccccc2CCc2ccccc21.Cl in?
II

Band for O=C(CS(=O)Cc1ccco1)NC/C=C\COc1cc(CN2CCCCC2)ccn1 (stereo not drawn) ?
II

Hey, which category is COc1ccc(C(C)NC(=O)CCc2nnc3ccc(-c4ccc(C)c(C)c4)nn23)cc1OC (stereo not drawn) in, do you know?
I

# bin label for CCn1ccc(C(=O)N2CCN(c3cc(C(F)(F)F)nc(C)n3)CC2)n1
I

Which of the defined bands does the recorded IRF reporter of Cc1c(-c2ccccc2)nc2ccccc2c1C(=O)Nc1ccc(F)cc1F sit within?
II

----------
Catalogue of molecules with associated IRF reporter
# Test system: RAW-Dual (murine macrophage reporter line)
# Experiment Description: IRF reporter (Lucia luciferase) activity fold change vs agonist alone; higher = enhanced IRF activity
# Cond: modulator concentration 10 µM; agonist: MPLA […]
When you answer, write just the number.

Some entries whose results are on file:
| Molecule | IRF reporter |
| --- | --- |
| CCN(CC)CCCC(C)Nc1c2ccc(Cl)cc2nc2ccc(OC)cc12 (configuration not stated) [Prestw-318] | 0.939 |
| Oc1ccc(C=NCc2ccccc2)cc1 | 1.06 |
| Clc1ccc(-c2nc(N3CCCCC3)nc3ccccc23)cc1 | 1.39 |

From here, focus on the item given below.
Record O=C(Nc1nccs1)c1ccc2c(c1)C(=O)N(C1CCCCC1)C2=O . Reported IRF reporter: 1.21

----------
# Tested on: RAW-Dual (murine macrophage reporter line)
# Experiment Description: IRF reporter (Lucia luciferase) activity fold change vs agonist alone; higher = enhanced IRF activity
# Cond: modulator concentration 10 µM; agonist: MPLA […]
Quantity Measured: IRF reporter
The reply should be a number, written without any unit.

Previously resolved entries follow.
| Smi | IRF reporter |
| --- | --- |
| CCCCOc1ccc(C(=O)Nc2cc(-c3nc4ccccc4o3)ccc2OC)cc1 | 1.02 |
| O=C(Oc1ccc(C=Nc2ccc([N+](=O)[O-])cc2)cc1)c1ccccc1 | 1.12 |
| Cc1ccc(-c2cc(NC(=O)c3ccc([N+](=O)[O-])cc3)[nH]n2)cc1 | 1.82 |
| Oc1c(Cl)cc(Cl)cc1Sc1cc(Cl)cc(Cl)c1O | 1.1 |
| Cc1ncn(CC(=O)N2CC(Oc3cccc(C(F)(F)F)n3)C2)c(=O)c1C | 1.25 |

// sample Nc1ccc(S(=O)(=O)NCCO)cc1 , its IRF reporter was 1.07

Query COC(=O)C1=C(C)NC(C)=C(C(=O)OC)C1c1ccccc1[N+](=O)[O-] yields IRF reporter of 0.414

The measured IRF reporter associated with CC=CCn1c(=O)c2c(nc3n2CC(C(C)(C)C)=NN3)n(C)c1=O reads 0.943

Lookup result for Cc1cc(OC2CN(C(=O)Cn3cnc4ccccc43)C2)cc(=O)n1C1CC1 ; measured IRF reporter: 0.955

Form: compound = COCCNCCOc1cc(C)c(Cl)c(C)c1 ; IRF reporter = 1.67

Please fill in: IRF reporter reported for COc1ccc(C(=O)NCc2ccc(OCCN(C)C)cc2)cc1OC.Cl = 1.08
